Listing of recorded cytotoxicity at 70.5 h by entry.
- assay_explanation: Human HepG2 cell viability assay in 384 well format
- Format: toxicity, cell-based
- Parameters: dose 125 nL, time 70.5 hour; concentration not given beside the values
- stated_conditions: HepG2 cells, read-out: Inhibition

{"compound": "Cc1cc(C(=O)NCc2cccs2)nc(N2CCCC2)n1", "cytotoxicity at 70.5 h": "-6.4%"}
{"compound": "O=C(CSCC1CC1)N1CCC2(CCCN(C3CCOCC3)C2=O)C1 (stereo not drawn)", "cytotoxicity at 70.5 h": "-6.7%"}
{"compound": "CCc1ncc(C(=O)NCC2CCN(Cc3ccncc3)CC2)cn1", "cytotoxicity at 70.5 h": "-5.64%"}
